system.name: T1, Cynomolgus TNFR2-His (Sino 90102-C08H) (cynomolgus monkey, UniProt A0A2K5VET2 132-366)
T1 construct: Bought protein; also called cynomolgus monkey TNFR2; recombinant cynomolgus monkey TNFR2 protein; not shown: His tag
T1 sequence: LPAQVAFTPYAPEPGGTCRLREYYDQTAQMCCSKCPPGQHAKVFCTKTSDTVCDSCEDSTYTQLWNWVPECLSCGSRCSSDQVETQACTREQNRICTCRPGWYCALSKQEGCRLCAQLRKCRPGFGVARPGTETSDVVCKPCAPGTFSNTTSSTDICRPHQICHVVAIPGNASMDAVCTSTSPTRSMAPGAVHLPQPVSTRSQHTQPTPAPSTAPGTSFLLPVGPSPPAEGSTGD
test.protocol: SPR (Biacore T200), antibody captured on Protein A chip

binder	Kd (nM)
219-Hu3 (antibody, V domains shown, also called VH5 + VL5) VH: QVQLVQSGAEVKKPGSSVKVSCKASGYSFTNYWMNWVRQAPGQGLEWMGMIHPSDTETRLNQNFKDRVTITADKSTSTAYMELSSLRSEDTAVYYCARGEGLGAARSVSMDYWGQGTLVTVSS VL: DIQMTQSPSSLSASVGDRVTITCRASQDISNYLNWYQQKPDGTVKLLIYYTAILHSGVPSRFSGSGSGTDYSLTISSLQPEDFATYFCQQGNTLPWTFGQGTKVEIK	0.723
224-Hu1 (antibody, V domains shown, Humanized form of #224; also called VH8 + VL6) VH: QVQLVQSGAEVKKPGASVKVSCKASGFNNKDIYMHWVRQAPGQGLEWIGRIDPATGNTKHDPKFQDRVTMTSDTSTNTVYMELSSLRSEDTAVYYCARSPYGDFGAMDYWGQGTLVTVSS VL: DIQMTQSPSSLSASVGDRVTITCTASSSVSSNYLHWYQQKPGKAPKLWIYSTSNLPSGVPSRFSGSGSGTDFTLTISSLQPEDFATYYCHQYHRSPWTFGQGTKVEIK	3.95
224-Hu2 (antibody, V domains shown, Humanized form of #224; also called VH9 + VL7) VH: QVQLVQSGSELKKPGASVKVSCKASGFNNKDIYMHWVRQAPGQGLEWMGRIDPATGNTKHDPKFQDKAVLSSDTSVSTAYLQISSLKAEDTAVYYCARSPYGDFGAMDYWGQGTLVTVSS VL: DIQMTQSPSSLSASVGDRVTITCTASSSVSSNYLHWYQQKPGSSPKLWIYSTSNLPSGVPSRFSGSGSGTDFTLTISSLQPEDFATYYCHQYHRSPWTFGQGTKVEIK	2.95
001-Hu2 (antibody, V domains shown, Humanized form of #001; also called VH2 + VL2) VH: EVQLVESGGGLVQPGGSLRLSCAASGFAFSTYDLSWVRQAPGKGLEWVAYINNGGISTYYSDTVKGRFTISRDNAKNSLYLQMNSLRAEDTAVYYCVRGPFYGSANYFDYWGQGTLVTVSS VL: DIQMTQSPSSLSASVGDRVTITCRTSESIYSNLPWYQQKPGKSPKLLIYDATKLAEGVPSRFSGSGSGTDFTLTISSLQPEDFATYYCQHFWVTPWTFGQGTKVEIK	0.599
224-Hu3 (antibody, V domains shown, Humanized form of #224; also called VH9 + VL8) VH: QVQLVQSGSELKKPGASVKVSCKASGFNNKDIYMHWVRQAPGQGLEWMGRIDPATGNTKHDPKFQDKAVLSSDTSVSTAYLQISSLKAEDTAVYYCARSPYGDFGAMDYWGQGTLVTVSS VL: DIQMTQSPSSLSASVGDRVTITCTASSSVSSNYLHWYQQKPGKAPKLLIYSTSNLPSGVPSRFSGSGSGTDFTLTISSLQAEDAATYYCHQYHRSPWTFGQGTKVEIK	2.97
